We begin with a simple list: items and their reported pIC50.
# measurementTarget: Recombinant autotaxin (Homo sapiens)
# assayOverview: Autotaxin assay (Amplex Red, LPC substrate)
# assaySetup: recombinant autotaxin, LPC substrate, Amplex Red detection; values given as upper bounds
pIC50: −log10 of the molar value.
parameterMeasured: pIC50

{"columns": ["molecule", "measurementTarget", "observedResult"],
 "data": [
  ["O=C(CCc1cc(Cl)c(F)c(Cl)c1)N1CCC(N2CCN(C(=O)c3ccc4[nH]nnc4c3)CC2)CC1 [Compound 133]", "Recombinant autotaxin (Homo sapiens)", "> 5.00"],
  ["O=C(OCc1cc(Cl)cc(Cl)c1)N1CCC2(CC1)CCN(C(=O)c1ccc3[nH]nnc3c1)CC2 [Compound 29]", "Recombinant autotaxin (Homo sapiens)", "> 4.52"],
  ["O=C(c1ccc2[nH]nnc2c1)N1CCC(N2CCN(C(=O)c3cc4cc(Br)ccc4o3)CC2)CC1 [Compound 159]", "Recombinant autotaxin (Homo sapiens)", "> 5.00"],
  ["O=C(CCc1ccc(C(F)(F)F)cc1)N1CCN(C2CCN(C(=O)c3ccc4[nH]c(=O)oc4c3)CC2)CC1 [Compound 33]", "Recombinant autotaxin (Homo sapiens)", "> 6.00"],
  ["O=C(OCc1ccc(F)c(C(F)(F)F)c1)N1CCN(C2CCN(C(=O)c3ccc4[nH]nnc4c3)CC2)CC1 [Compound 100]", "Recombinant autotaxin (Homo sapiens)", "> 6.00"]
]}

----------
# measurementTarget: Recombinant autotaxin (Homo sapiens, UniProt Q13822)
# assayOverview: Autotaxin assay (Amplex Red, LPC substrate)
# assaySetup: recombinant autotaxin, LPC substrate, Amplex Red detection; values given as upper bounds
pIC50: −log10 of the molar value.
Recorded pIC50 for the following molecules

{"columns": ["compoundStructure", "measurementTarget", "pIC50"],
 "data": [
  ["O=C(CCc1ccccc1O)N1CCC(C2CCN(C(=O)c3ccccc3-c3cccc(C(F)(F)F)c3)CC2)CC1", "Recombinant autotaxin (Homo sapiens, UniProt Q13822)", "> 6.00"],
  ["Cc1ccc(C(OC(=O)N2CCN(C3CCN(C(=O)c4ccc5[nH]nnc5c4)CC3)CC2)(C(F)(F)F)C(F)(F)F)cc1", "Recombinant autotaxin (Homo sapiens, UniProt Q13822)", "> 5.00"],
  ["O=C(CCc1cc(Cl)c(F)c(Cl)c1)N1CCN(C2CCN(C(=O)c3ccc4[nH]nnc4c3)CC2)CC1", "Recombinant autotaxin (Homo sapiens, UniProt Q13822)", "> 5.00"],
  ["O=C(CCc1ccc(C(F)(F)F)cc1)N1CCN(C2CCN(C(=O)c3ccc4[nH]nnc4c3)CC2)CC1", "Recombinant autotaxin (Homo sapiens, UniProt Q13822)", "> 6.00"],
  ["O=C(OCc1ccc(Br)cc1F)N1CCN(C2CCN(C(=O)c3ccc4[nH]nnc4c3)CC2)CC1", "Recombinant autotaxin (Homo sapiens, UniProt Q13822)", "> 5.00"]
]}

----------
# measurementTarget: Recombinant autotaxin (Homo sapiens)
# assayOverview: Autotaxin assay (Amplex Red, LPC substrate)
# assaySetup: recombinant autotaxin, LPC substrate, Amplex Red detection; values given as upper bounds
pIC50: −log10 of the molar value.
parameterMeasured: pIC50

{"columns": ["molecule", "measurementTarget", "observedResult"],
 "data": [
  ["O=C(OCc1cc(Cl)cc(C(F)(F)F)c1)N1CCC(N2CCN(C(=O)c3ccc4[nH]nnc4c3)CC2)CC1", "Recombinant autotaxin (Homo sapiens)", "> 6.00"],
  ["Cc1nc(-c2ccc(C(F)(F)F)cc2)sc1C(=O)N1CCN(C2CCN(C(=O)c3ccc4[nH]nnc4c3)CC2)CC1", "Recombinant autotaxin (Homo sapiens)", "> 5.00"],
  ["O=C(CCc1ccc(Cl)cc1F)N1CCC(NC2CCN(C(=O)c3ccc4[nH]nnc4c3)CC2)C1 (stereo not drawn)", "Recombinant autotaxin (Homo sapiens)", "> 5.00"],
  ["O=C(CC(=O)N1CCC(N2CCN(C(=O)c3ccc4[nH]nnc4c3)CC2)CC1)c1ccc(C(F)(F)F)cc1", "Recombinant autotaxin (Homo sapiens)", "> 5.00"],
  ["Cc1nc(-c2ccc(C(F)(F)F)cc2)sc1C(=O)N1CCC(N2CC(C(=O)Nc3ccc4[nH]nnc4c3)CC2=O)CC1 (stereo not drawn)", "Recombinant autotaxin (Homo sapiens)", "> 5.00"],
  ["COc1ccc(Cl)cc1COC(=O)N1CCN(C2CCN(C(=O)c3ccc4[nH]nnc4c3)CC2)CC1", "Recombinant autotaxin (Homo sapiens)", "> 6.00"],
  ["O=C(OCc1cc(Cl)cc(Cl)c1)N1CCC(N2CCN(C(=O)c3ccc4[nH]c(=O)oc4c3)CC2)CC1", "Recombinant autotaxin (Homo sapiens)", "> 6.00"],
  ["O=C(CCc1ccc(Cl)cc1Cl)N1CCC(N2CCN(C(=O)c3ccc4[nH]nnc4c3)CC2)CC1", "Recombinant autotaxin (Homo sapiens)", "> 5.00"],
  ["O=C(OCc1ccc(Cl)cc1F)N1CCC(NC2CCN(C(=O)c3ccc4[nH]nnc4c3)CC2)C1 (stereo not drawn)", "Recombinant autotaxin (Homo sapiens)", "> 5.00"],
  ["O=C(NC1CCC(N2CCN(C(=O)OCc3ccc(C(F)(F)F)c(F)c3)CC2)CC1)c1ccc2[nH]nnc2c1 (stereo not drawn)", "Recombinant autotaxin (Homo sapiens)", "> 5.00"],
  ["O=C(Nc1ccc2[nH]nnc2c1)c1cccc(N2CCN(C(=O)OCc3ccc(Cl)cc3)CC2)c1", "Recombinant autotaxin (Homo sapiens)", "> 4.52"],
  ["O=C(OCc1cc(C(F)(F)F)cc(C(F)(F)F)c1)N1CCN(C2CCN(C(=O)c3ccc4[nH]nnc4c3)CC2)CC1", "Recombinant autotaxin (Homo sapiens)", "> 6.00"],
  ["Cn1nc2ccccc2c1COC(=O)N1CCN(C2CCN(C(=O)c3ccc4[nH]nnc4c3)CC2)CC1", "Recombinant autotaxin (Homo sapiens)", "> 4.52"],
  ["O=C(OCc1ccc(C(F)(F)F)cc1)N1CCC(NC2CCN(C(=O)c3ccc4[nH]nnc4c3)CC2)C1 (stereo not drawn)", "Recombinant autotaxin (Homo sapiens)", "> 5.00"],
  ["Cc1nc(-c2ccc(Cl)cc2)sc1COC(=O)N1CCN(C2CCN(C(=O)c3ccc4[nH]nnc4c3)CC2)CC1", "Recombinant autotaxin (Homo sapiens)", "> 5.00"],
  ["O=C(OCC1CN(c2ccc(Cl)cc2)C(=O)O1)N1CCN(C2CCN(C(=O)c3ccc4[nH]nnc4c3)CC2)CC1 (stereo not drawn)", "Recombinant autotaxin (Homo sapiens)", "> 5.00"],
  ["O=C(OCc1cc(Cl)c(F)c(Cl)c1)N1CCC(N2CCN(C(=O)c3ccc4[nH]nnc4c3)CC2)CC1", "Recombinant autotaxin (Homo sapiens)", "> 6.00"],
  ["COc1cc(COC(=O)N2CCN(C3CCN(C(=O)c4ccc5[nH]nnc5c4)CC3)CC2)cc(OC)c1", "Recombinant autotaxin (Homo sapiens)", "> 5.00"],
  ["O=C(OCc1cc(Cl)cc(Cl)c1)N1CCC(N2CCN(C(=O)c3ccc4[nH]nnc4c3)CC2)CC1", "Recombinant autotaxin (Homo sapiens)", "> 6.00"],
  ["O=C(OCc1ccc(SC(F)(F)F)cc1)N1CCC(N2CCN(C(=O)c3ccc4[nH]nnc4c3)CC2)CC1", "Recombinant autotaxin (Homo sapiens)", "> 6.00"],
  ["Cc1ccc(COC(=O)N2CCN(C3CCN(C(=O)c4ccc5[nH]nnc5c4)CC3)CC2)cc1", "Recombinant autotaxin (Homo sapiens)", "> 5.00"]
]}
